Provenance of the data: patent US20240270821A1

Biological target: hGcgR (Homo sapiens, UniProt P47871)
Sequence (P47871 26-477): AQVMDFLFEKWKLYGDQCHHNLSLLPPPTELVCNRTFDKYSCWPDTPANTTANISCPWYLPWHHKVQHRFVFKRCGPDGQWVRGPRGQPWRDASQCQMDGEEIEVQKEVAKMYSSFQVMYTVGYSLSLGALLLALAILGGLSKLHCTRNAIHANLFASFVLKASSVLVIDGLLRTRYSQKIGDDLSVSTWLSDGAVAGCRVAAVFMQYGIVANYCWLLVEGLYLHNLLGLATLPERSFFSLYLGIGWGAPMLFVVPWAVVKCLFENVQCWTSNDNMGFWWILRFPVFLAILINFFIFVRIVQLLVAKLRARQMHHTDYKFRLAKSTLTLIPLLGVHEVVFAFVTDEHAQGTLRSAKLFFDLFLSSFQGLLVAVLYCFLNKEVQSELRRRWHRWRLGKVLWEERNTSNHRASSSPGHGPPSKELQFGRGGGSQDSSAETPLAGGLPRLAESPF
Assay: Functional cAMP activation in the presence of 0.1% casein (no HSA);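 further: intracellular cAMP rise after 30 min at 37 °C, read by HTRF against a cAMP standard curve, scaled from buffer only (0%) to maximal control ligand response (100%)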
Assay type: cell-based
Details: in the presence of 0.1% casein (no HSA); geometric mean; read-out: Relative cAMP EC50, hGcgR
Starred links: 1 amine or outer side, 2 acyl side, 3 side chain; linkers in the order of their positions; H or OH if unused. Non-standard residues stand in square brackets, D forms with d. Groups on a side chain read outwards from the residue. No end group written: not given here. *: point of attachment. C20 diacid = O=C(O)CCCCCCCCCCCCCCCCCCC(=O)*; C18 diacid = O=C(O)CCCCCCCCCCCCCCCCC(=O)*; αMePhe(2-F) = C[C@](N)(Cc1ccccc1F)C(=O)O; γGlu = O=C(O)[C@H](CCC(=O)[*:2])N[*:1]; αMe4Pal = C[C@](N)(Cc1ccncc1)C(=O)O; αMeY = C[C@](N)(Cc1ccc(O)cc1)C(=O)O; αMeF = C[C@](N)(Cc1ccccc1)C(=O)O; 4Pal = N[C@@H](Cc1ccncc1)C(=O)O; αMeL = CC(C)C[C@](C)(N)C(=O)O; αMeS = C[C@](N)(CO)C(=O)O; Orn = NCCC[C@H](N)C(=O)O; AEEA = NCCOCCOCC(=O)O; Aib = CC(C)(N)C(=O)O
Could you please report measured EC50 for the items listed next?
Answers are plain numbers, in nM.

Substance	EC50, nM
Y[Aib]QGTFTSDFSK[αMeL]LDKK([AEEA-γGlu-C20 diacid])AQ[Aib]AFIQWLLEGGPSSGAPPPSEG-NH2 [Example 39]	10.1
H-Y[Aib]QGTFTSD[4Pal]SQ[αMeL]LDKK([AEEA-γGlu-C18 diacid])AQ[αMe4Pal]AFIEYLIE[Aib]GESSGAPPPSGE-NH2 [Example 227]	4.22
H-Y[Aib]QGTFTSD[4Pal]S[Orn][αMeL]LD[Orn]K([γGlu-γGlu-C18 diacid])AQ[αMe4Pal]AFIEYLIE[Aib]GPSSGAPPPSGS-NH2 [Example 939]	2.41
H-Y[Aib]QGT[αMePhe(2-F)]TSDYSILLDKQAQK([AEEA-AEEA-γGlu-C20 diacid])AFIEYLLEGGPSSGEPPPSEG-NH2 [Example 345]	11.3
H-Y[Aib]QGTFTSDFS[Orn][αMeL]LDKK([AEEA-γGlu-C18 diacid])AQ[Aib]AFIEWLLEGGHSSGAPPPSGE-NH2 [Example 122]	3.95

input: Report EC50, nothing else, for this substance: H-Y[Aib]QGT[αMeF]TSD[4Pal][αMeS]I[αMeL]LD[Orn]K([γGlu-γGlu-C18 diacid])AQ[αMe4Pal]EFI[dE][αMeY]LIEGGPSSGAPPPSGSE-NH2 [Example 1172]
output: 2.52
